Tested on: ATP;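 further: ATP exposure 15 min at 22 °C before imaging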
Assay: switch fluorescence ratio, 500 uM ATP over buffer (Cy3 cluster intensity, sum of 5 cycles each) (fold (ratio)); higher = stronger signal-on switching upon ATP binding; sequences stand for … in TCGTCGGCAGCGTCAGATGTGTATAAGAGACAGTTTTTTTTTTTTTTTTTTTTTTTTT…TC
Details: aptamer strand: ATP DNA aptamer (quencher-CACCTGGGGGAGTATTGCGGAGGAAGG + anchor), 100 nM annealed; ATP concentration: 500 uM
Everything with switch fluorescence ratio lower than 1 is criterion not met; everything else, including exactly 1, is criterion met.

> print(dat)
      residues   class.assignment
 1  TGCCAATGAA  criterion not met
 2  CCACGGGGTT      criterion met
 3  GAGGGCCTTT  criterion not met
 4  AAGATGCAGC      criterion met
 5  GGGCAAGTGG  criterion not met
 6  ACCATCGATA      criterion met
 7  TGACGGTGGG  criterion not met
 8  CGAAAGTATA      criterion met
 9  TATGGGCAGC      criterion met
10  CACATTGACC      criterion met
11  CGAGGAATTT      criterion met
12  TTAGGATAAT      criterion met
13   TTCTTGAAG  criterion not met

###

System: ATP;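 further: ATP exposure 15 min at 22 °C before imaging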
Assay: switch fluorescence ratio, 500 uM ATP over buffer (Cy3 cluster intensity, sum of 5 cycles each) (fold (ratio)); higher = stronger signal-on switching upon ATP binding; sequences stand for … in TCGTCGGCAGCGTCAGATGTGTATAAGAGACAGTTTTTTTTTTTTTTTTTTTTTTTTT…TC
Settings: aptamer strand: ATP DNA aptamer (quencher-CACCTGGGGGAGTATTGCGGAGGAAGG + anchor), 100 nM annealed; ATP concentration: 500 uM
Assay Endpoint: switch fluorescence ratio

> print(dat)
      residues  test.result
 1  CAAGATGGTC        0.987
 2  TAGGTAGGTT         1.01
 3  GAGGGGAACT        0.995
 4  ATTTACTCAT         1.04
 5  GGCTGTGTTA        0.996
 6  GGGGTAGTTA        0.974
 7  CCTGTTAAAT         1.05
 8  CTATAGTAGG        0.985
 9  ATTAAGATGT            1
10  GATATGATAC         1.08
11  CTAAACAGAA            1
12  ACGTATTTTG         1.08
13  ACTATGCGGG        0.982
14  ACTTTATTTC         1.01
15  TGTAGGGGCA         0.99
16  AAAGTTGGCT         1.02
17  CCGGTACTTT         1.05
18  CTATAGGAAA         1.03
19  TTATCAAGGG        0.975
20  ACGGGGTTTG        0.995
21  CCTCTGGAGG         1.09
22  TATTAGTCAG            1
23  TTTACTGAGA         1.01
24  CAGATTTTGA         0.98
25  CAGTGCGGCT         1.01
26  AGTTTGCTTG        0.993
27  TGAACCGCTA         1.81
28  ACGTAATTTT         1.17
29  ATTGGGGGGA        0.982
30  GTAGTAGCCA         1.01
31  TTCTTGTAAT         1.01
32  TTGAGGTGGC        0.982
33  CAATTTATAT        0.994
34  AAATGAAGGT         1.01
35  TATTTTCGGT        0.986
36  TCAGACTGTT         1.01

Cited source for all entries: the supplement of paper PMC10126150
